Molecular target: FAAH (Homo sapiens, UniProt O00519)
Sequence (O00519 whole entry): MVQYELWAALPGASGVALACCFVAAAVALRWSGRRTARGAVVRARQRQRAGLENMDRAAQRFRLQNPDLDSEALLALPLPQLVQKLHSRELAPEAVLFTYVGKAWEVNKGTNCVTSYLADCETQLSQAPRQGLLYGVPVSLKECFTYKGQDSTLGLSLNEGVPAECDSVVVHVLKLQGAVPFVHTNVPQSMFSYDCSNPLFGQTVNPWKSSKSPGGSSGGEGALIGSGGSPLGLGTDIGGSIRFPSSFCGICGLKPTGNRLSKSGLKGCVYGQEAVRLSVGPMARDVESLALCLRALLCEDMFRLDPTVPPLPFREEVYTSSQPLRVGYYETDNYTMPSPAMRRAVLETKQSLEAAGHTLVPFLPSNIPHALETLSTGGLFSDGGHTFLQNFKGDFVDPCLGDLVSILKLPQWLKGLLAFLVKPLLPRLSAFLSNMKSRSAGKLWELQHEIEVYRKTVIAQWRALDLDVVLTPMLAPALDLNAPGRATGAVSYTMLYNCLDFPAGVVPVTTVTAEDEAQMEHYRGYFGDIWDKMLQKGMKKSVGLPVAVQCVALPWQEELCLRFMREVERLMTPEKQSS
Assay: FAAH fluorescence-based inhibitory assay
Assay type: biochemical
FAAH IC50 values by entry
measure name: FAAH IC50

compound	result
CCCC(=O)NCCCCC(NC(=O)CCC)C(=O)[O-].CCCC(=O)NCCCCC(NC(=O)CCC)C(=O)[O-].[Ca+2] (stereo not shown) [Ca di-(di-n-butyryl lysinate), calcium di-(di-n-butyryl lysinate)]	213.6 µg/mL
CCCC(=O)N[C@@H](CC(C)C)C(=O)[O-].CCCC(=O)N[C@@H](CC(C)C)C(=O)[O-].[Zn+2] [Zn di-(n-butyryl leucinate), Zinc di-(n-butyryl leucinate)]	41.3 µg/mL
CCCC(=O)NCCCC[C@H](NC(=O)CCC)C(=O)[O-].CCCC(=O)NCCCC[C@H](NC(=O)CCC)C(=O)[O-].[Zn+2] [Zn di-(di-n-butyryl lysinate), Zinc di-(di-n-butyryl lysinate)]	368.7 µg/mL
CCCC(=O)NCCCC[C@H](NC(=O)CCC)C(=O)[O-].CCCC(=O)NCCCC[C@H](NC(=O)CCC)C(=O)[O-].[Mg+2] [Mg di-(di-n-butyryl lysinate), magnesium di-(di-n-butyryl lysinate)]	368.5 µg/mL

----------
Biological target: HDAC6 (Homo sapiens)
Sequence (Q9UBN7 1-1215): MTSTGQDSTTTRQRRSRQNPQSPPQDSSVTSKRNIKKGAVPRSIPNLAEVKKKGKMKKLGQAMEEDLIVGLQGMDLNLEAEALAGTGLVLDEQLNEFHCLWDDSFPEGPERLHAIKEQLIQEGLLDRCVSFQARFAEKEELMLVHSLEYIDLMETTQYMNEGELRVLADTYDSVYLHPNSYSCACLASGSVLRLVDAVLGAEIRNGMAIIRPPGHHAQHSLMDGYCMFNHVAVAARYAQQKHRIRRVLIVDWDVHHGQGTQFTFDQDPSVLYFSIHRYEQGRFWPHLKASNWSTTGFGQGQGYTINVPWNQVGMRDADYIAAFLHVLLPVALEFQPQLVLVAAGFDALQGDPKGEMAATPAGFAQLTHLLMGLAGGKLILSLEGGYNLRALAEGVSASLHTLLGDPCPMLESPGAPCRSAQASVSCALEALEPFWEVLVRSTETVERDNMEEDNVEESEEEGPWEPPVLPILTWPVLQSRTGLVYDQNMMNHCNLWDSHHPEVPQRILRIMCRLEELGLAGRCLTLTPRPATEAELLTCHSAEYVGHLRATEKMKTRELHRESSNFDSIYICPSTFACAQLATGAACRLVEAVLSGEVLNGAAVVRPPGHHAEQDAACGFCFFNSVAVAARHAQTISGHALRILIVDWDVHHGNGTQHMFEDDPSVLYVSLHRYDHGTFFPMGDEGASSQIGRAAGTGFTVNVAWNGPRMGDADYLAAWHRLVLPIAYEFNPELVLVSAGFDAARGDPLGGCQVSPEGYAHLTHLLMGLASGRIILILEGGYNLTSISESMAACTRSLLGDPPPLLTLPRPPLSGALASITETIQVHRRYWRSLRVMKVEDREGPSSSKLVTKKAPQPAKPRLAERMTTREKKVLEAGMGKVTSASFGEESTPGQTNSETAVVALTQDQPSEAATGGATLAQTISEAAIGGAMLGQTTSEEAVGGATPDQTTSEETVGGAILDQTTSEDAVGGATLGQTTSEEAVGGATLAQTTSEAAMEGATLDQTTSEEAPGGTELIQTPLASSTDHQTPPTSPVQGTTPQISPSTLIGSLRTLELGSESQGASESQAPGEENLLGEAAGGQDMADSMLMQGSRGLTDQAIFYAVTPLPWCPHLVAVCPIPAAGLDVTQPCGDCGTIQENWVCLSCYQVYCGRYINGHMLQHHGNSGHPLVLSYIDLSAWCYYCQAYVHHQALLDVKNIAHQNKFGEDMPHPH
Conditions: 50 ug/ml
measure name: HDAC 6 activity, % of water-treated controls (%)

compound	recorded number
CCCC(=O)NCCCC[C@H](NC(=O)CCC)C(=O)[O-].CCCC(=O)NCCCC[C@H](NC(=O)CCC)C(=O)[O-].[Zn+2] [Zn di-(di-n-butyryl lysinate), Zinc di-(di-n-butyryl lysinate)]	19
CCCC(=O)NCCCCC(NC(=O)CCC)C(=O)[O-].CCCC(=O)NCCCCC(NC(=O)CCC)C(=O)[O-].[Ca+2] (stereo not shown) [Ca di-(di-n-butyryl lysinate), calcium di-(di-n-butyryl lysinate)]	124
CCCC(=O)N[C@@H](CC(C)C)C(=O)[O-].CCCC(=O)N[C@@H](CC(C)C)C(=O)[O-].[Zn+2] [Zn di-(n-butyryl leucinate), Zinc di-(n-butyryl leucinate)]	21
CCCC(=O)[O-].[Na+] [Sodium butyrate, reference compound]	107
